- STUDY TARGET: furin, P09958;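 note: purified furin at 1:10 enzyme:substrate in 50 mM HEPES pH 7.5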
- Sequence (P09958 whole entry): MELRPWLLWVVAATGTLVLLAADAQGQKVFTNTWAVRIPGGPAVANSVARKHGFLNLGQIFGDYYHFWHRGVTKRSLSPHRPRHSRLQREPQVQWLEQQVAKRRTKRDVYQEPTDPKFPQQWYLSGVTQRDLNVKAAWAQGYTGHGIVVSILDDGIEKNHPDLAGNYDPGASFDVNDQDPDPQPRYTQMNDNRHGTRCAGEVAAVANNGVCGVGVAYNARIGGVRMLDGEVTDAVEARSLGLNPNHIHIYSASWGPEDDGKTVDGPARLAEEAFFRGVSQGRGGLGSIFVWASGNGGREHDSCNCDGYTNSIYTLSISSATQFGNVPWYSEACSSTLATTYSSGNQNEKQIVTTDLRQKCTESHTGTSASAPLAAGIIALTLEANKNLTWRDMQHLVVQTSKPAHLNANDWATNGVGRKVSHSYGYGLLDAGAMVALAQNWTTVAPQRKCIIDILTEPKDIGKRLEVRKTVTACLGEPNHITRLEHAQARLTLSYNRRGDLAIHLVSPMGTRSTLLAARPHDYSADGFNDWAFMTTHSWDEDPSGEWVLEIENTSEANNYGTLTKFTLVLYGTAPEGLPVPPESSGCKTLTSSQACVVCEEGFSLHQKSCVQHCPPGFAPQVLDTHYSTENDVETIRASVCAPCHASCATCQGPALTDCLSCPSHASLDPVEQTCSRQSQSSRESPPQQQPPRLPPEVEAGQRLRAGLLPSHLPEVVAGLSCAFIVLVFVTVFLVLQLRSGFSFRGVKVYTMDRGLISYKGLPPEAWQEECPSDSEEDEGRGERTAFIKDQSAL
- PROCEDURE TEXT: furin cleavage Z-score vs untreated control; higher = more cleavage, active = 3.5 or more, inactive = 1 or less, 8 variable residues between constant flanks
- STUDY CONDITIONS: 7.5 min
The list shows a part of the results. No count for the full screen is at hand.
Class definitions on furin cleavage Z-score: 1 (below -0.2), 2 (-0.2 to below 4), 3 (4 or more)

Use the examples below as a reference point.
CARPKRKGKCAGNASASA [FS-1761] : 2
CALVGAPLGGAGNASASA [HC230] : 2
CARAKRSVHFAGNASASA [FS-2640] : 1
CASSRRDSSWAGNASASA [FS-3138] : 1
CAYSALHKRQAGNASASA [FS-1505] : 2
CAMEECSQHCAGNASASA [HC1780] : 2
CATTPCSGRWAGNASASA [HC1913] : 1
CARLEVVTSTAGNASASA [HC2273] : 2

Which furin cleavage Z-score category applies to CARPKRSHHCAGNASASA [FS-2399] here?
3

Subsequent entry: CAKVIDTLTCAGNASASA [HC221]
1
